# Subject Of Test: SARS-CoV-2 Spike protein (Severe acute respiratory syndrome coronavirus 2)
# Protocol Description: Ternary binding of SARS-CoV-2 Spike protein (293T cells expressing Spike-GFP, IgG-AF647, flow cytometry)
# Assay type: cell-based
# Details: 293T cells expressing Spike-GFP; IgG-AF647 10 μg/ml; repeat values/batches listed separately; read-out: SARS-CoV-2 Ternary binding EC50
Positions of bridges follow the written chain, without caps; N, C: chain ends. No end group written: not given here.
Listed below: EC50 values for each entry.

# Substance, Subject Of Test, EC50
records = [
    ("Ac-DCAWHLGELVWCTILQKIYEIMRLLDELGHAEASMRVSDLIYEFMKK (disulfide 2-12) [Compound 122]", "SARS-CoV-2 Spike protein (Severe acute respiratory syndrome coronavirus 2)", "> 10 nM"),
    ("Ac-QKIYEICRLLDELGHAEASMRCSDLIYEFMKKGDCAWHLGELVWCT-NH2 (disulfide 7-22, 35-45) [Compound 140]", "SARS-CoV-2 Spike protein (Severe acute respiratory syndrome coronavirus 2)", "> 100 nM"),
]

With those in mind, consider the next substance.
What value of EC50 on SARS-CoV-2 Spike protein (Severe acute respiratory syndrome coronavirus 2) does Ac-QKIYEIMRLCDELGHAEACMRVSDLIYEFMKKGDCAWHLGELVWCT-NH2 (disulfide 10-19, 35-45) [Compound 164] have?
> 100 nM
